# System: U2OS
# test: Multiplex assay against U2OS
# Format: toxicity, cell-based
# studyConditions: human, 24 h, 1 µM, compound concentration 1 uM, replicate 2
quantityKind: Population Pyknosed Nuclei (%)

[[record]]
compound = "O=c1ccc2ccc(OCCCCN3CCN(c4cccc5sccc45)CC3)cc2[nH]1 [BREXPIPRAZOLE]"
targetsystem = "U2OS"
quantitykind = "Population Pyknosed Nuclei (%)"
result = 19

[[record]]
compound = "CCc1nn2c(C)cc(C)nc2c1Cc1ccc(-c2nnc(C3CCNCC3)o2)cc1"
targetsystem = "U2OS"
quantitykind = "Population Pyknosed Nuclei (%)"
result = 6

[[record]]
compound = "CCCCCCNC(=O)Nc1ccc(S(=O)(=O)Nc2ccc(CCNC[C@H](O)COc3ccc(O)cc3)cc2)cc1 [L-755507]"
targetsystem = "U2OS"
quantitykind = "Population Pyknosed Nuclei (%)"
result = 9

[[record]]
compound = "COc1c(Nc2ccc(S(C)(=O)=O)nc2C)ncnc1OC1CCN(C(=O)OC(C)C)CC1 [ADP-597]"
targetsystem = "U2OS"
quantitykind = "Population Pyknosed Nuclei (%)"
result = 8


###

# System: U2OS
# test: Multiplex assay against U2OS
# Format: toxicity, cell-based
# studyConditions: human, 12 h, 10 µM, compound concentration 10 uM, replicate 2
Label label 1 when Population Membrane Permeable-Phenotype (%) >= 10%; otherwise label 0.

[[record]]
compound = "COc1cc(Nc2ncc3c(n2)-c2ccc(Cl)cc2C(c2c(F)cccc2OC)=NC3)ccc1C(=O)O"
answerlabel = "label 0"

[[record]]
compound = "Cc1cc(-c2ccc3c(c2)CC[C@H]3N2CC3(CCN(C(=O)Cc4cn5cc(C)sc5n4)CC3)C2)ncn1"
answerlabel = "label 0"

[[record]]
compound = "Cl.Cl.OCCOCCN1CCN(C(c2ccccc2)c2ccc(Cl)cc2)CC1 (configuration not stated) [HYDROXYZINE HYDROCHLORIDE]"
answerlabel = "label 0"

[[record]]
compound = "CN1CCN2c3ccccc3Cc3ccccc3C2C1.Cl (configuration not stated) [MIANSERIN HYDROCHLORIDE]"
answerlabel = "label 0"

[[record]]
compound = "C=CCN1C[C@H](C(=O)N(CCCN(C)C)C(=O)NCC)C[C@@H]2c3cccc4[nH]cc(c34)C[C@H]21"
answerlabel = "label 1"

[[record]]
compound = "OCCCNc1cc(-c2ccnc(Nc3cccc(Cl)c3)n2)ccn1"
answerlabel = "label 1"

[[record]]
compound = "S=C(NCCCc1c[nH]cn1)NCCCN(Cc1ccc(Cl)c(Cl)c1)c1ccc(Br)cn1"
answerlabel = "label 1"

[[record]]
compound = "CC(C)(O)C(=O)N1CCN(c2ccc(C(F)(F)F)c(C3=C(c4c[nH]c5ccccc45)C(=O)NC3=O)c2)CC1"
answerlabel = "label 1"

[[record]]
compound = "CN1CCC(C(=O)c2cccc(NC(=O)c3c(F)cc(F)cc3F)n2)CC1"
answerlabel = "label 1"

[[record]]
compound = "CCCCC[C@H](O)/C=C/[C@H]1[C@H](O)CC(=O)[C@@H]1CCCCCCC(=O)O"
answerlabel = "label 0"

[[record]]
compound = "CN1CCN(c2ccc(Nc3c4ccccc4nc4ccccc34)cc2)CC1.Cl.Cl.O"
answerlabel = "label 1"

[[record]]
compound = "Cc1cc(O)c(-c2ccc([C@@H](C)CN(C)C)cc2)c2c1[nH]c(=O)c1sccc12"
answerlabel = "label 1"

[[record]]
compound = "O=C(NCCNCC(O)COc1ccc(O)cc1)N1CCOCC1.O=C(NCCNCC(O)COc1ccc(O)cc1)N1CCOCC1.O=C(O)/C=C/C(=O)O (configuration not stated) [XAMOTEROL FUMARATE]"
answerlabel = "label 0"

[[record]]
compound = "C[C@H](NC(=O)CNC(=O)c1cccc(Cl)c1)c1ccccc1"
answerlabel = "label 0"

[[record]]
compound = "COc1cc2nc(N3CCN(C(=O)c4ccco4)CC3)nc(N)c2cc1OC.Cl [PRAZOSIN HYDROCHLORIDE]"
answerlabel = "label 0"


###

# Tested on: Fibroblast
# test: Multiplex assay against human fibroblast
# Type: toxicity, cell-based
# studyConditions: 24 h, 10 µM, compound concentration 10 uM, replicate 2
Label criterion met when Population Tubulin-Different-Phenotype (%) >= 70%; otherwise criterion not met.

[[record]]
molecule = "O=c1nc2[nH]c3ccccc3nc-2c(=O)[nH]1"
answerlabel = "criterion not met"

[[record]]
molecule = "O=C(O)CCC/C=C\\CC1C(O)CC(O)C1/C=C/C(O)COc1cccc(Cl)c1 (configuration not stated)"
answerlabel = "criterion not met"

[[record]]
molecule = "CCC(=O)OCC(=O)[C@@]1(OC(=O)CC)[C@@H](C)C[C@H]2[C@@H]3CCC4=CC(=O)C=C[C@]4(C)[C@@]3(Cl)[C@@H](O)C[C@@]21C [BECLOMETHASONE DIPROPIONATE]"
answerlabel = "criterion met"

[[record]]
molecule = "Cc1cc(O)c(-c2ccc([C@@H](C)CN(C)C)cc2)c2c1[nH]c(=O)c1sccc12"
answerlabel = "criterion met"

[[record]]
molecule = "Cc1sc2c(c1C)C(c1ccc(Cl)cc1)=N[C@H](CC(=O)OC(C)(C)C)c1nnc(C)n1-2"
answerlabel = "criterion met"

[[record]]
molecule = "Cc1c(Cc2ccc3ccccc3n2)c2cc(F)ccc2n1CC(=O)O"
answerlabel = "criterion not met"

[[record]]
molecule = "COCCn1c(C)c(C)s/c1=N\\C(=O)C1C(C)(C)C1(C)C"
answerlabel = "criterion not met"

[[record]]
molecule = "CC(C)(O)C(=O)N1CCN(c2ccc(C(F)(F)F)c(C3=C(c4c[nH]c5ccccc45)C(=O)NC3=O)c2)CC1"
answerlabel = "criterion met"

[[record]]
molecule = "CCc1nn2c(C)cc(C)nc2c1Cc1ccc(-c2nnc(C3CCNCC3)o2)cc1"
answerlabel = "criterion met"

[[record]]
molecule = "Cc1nn(C)c2nc(NNC(=O)Nc3cc(Cl)nc(Cl)c3)cc(C(C)C)c12"
answerlabel = "criterion met"

[[record]]
molecule = "COc1cc2nc(N3CCN(C(=O)COc4c(OC)cccc4C(C)C)CC3)nc(N)c2cc1OC.Cl.Cl"
answerlabel = "criterion not met"

[[record]]
molecule = "COc1cc2nc(N3CCN(C(=O)c4ccco4)CC3)nc(N)c2cc1OC.Cl [PRAZOSIN HYDROCHLORIDE]"
answerlabel = "criterion met"

[[record]]
molecule = "CN1C[C@H](C(=O)N[C@]2(C)O[C@@]3(O)[C@@H]4CCCN4C(=O)[C@H](Cc4ccccc4)N3C2=O)C[C@@H]2c3cccc4[nH]cc(c34)C[C@H]21.CS(=O)(=O)O [DIHYDROERGOTAMINE MESYLATE]"
answerlabel = "criterion not met"

[[record]]
molecule = "CN1CCC(C(=O)c2cccc(NC(=O)c3c(F)cc(F)cc3F)n2)CC1"
answerlabel = "criterion not met"


###

# System: HEK-293T
# test: Multiplex assay against HEK293T
# Assay type: toxicity, cell-based
# studyConditions: human, 12 h, 1 µM, compound concentration 1 uM, replicate 1
Non-standard residues stand in square brackets, D forms with d. Residues, ends and D or L forms follow the SMILES beside them.
quantityKind: Total Cell Count

[[record]]
compound = "CC(F)(F)CN1CCOc2c(nn(-c3ccccc3Cl)c2-c2ccc(Cl)cc2)C1=O"
result = 397

[[record]]
compound = "CN(C)C(=O)Cn1cc(-c2ccc(-c3nnc4ccccn34)cc2)cn1"
result = 432

[[record]]
compound = "N[C@](CC1c2ccccc2Oc2ccccc21)(C(=O)O)[C@H]1C[C@@H]1C(=O)O"
result = 447

[[record]]
compound = "O=C(Nc1cc(-c2ccccc2)nn1-c1ccccc1F)c1ccc([N+](=O)[O-])cc1"
result = 402

[[record]]
compound = "COc1ccc2[nH]c(I)c(CCNC(C)=O)c2c1"
result = 388

[[record]]
compound = "CN1C[C@H](C(=O)N[C@]2(C)O[C@@]3(O)[C@@H]4CCCN4C(=O)[C@H](Cc4ccccc4)N3C2=O)C[C@@H]2c3cccc4[nH]cc(c34)C[C@H]21.CS(=O)(=O)O [DIHYDROERGOTAMINE MESYLATE]"
result = 418

[[record]]
compound = "CN1CCN(c2ccc(Nc3c4ccccc4nc4ccccc34)cc2)CC1.Cl.Cl.O"
result = 411

[[record]]
compound = "S=C(NCCCc1c[nH]cn1)NCCCN(Cc1ccc(Cl)c(Cl)c1)c1ccc(Br)cn1"
result = 378

[[record]]
compound = "COCCCN1CCC(NC(=O)c2cc(Cl)c(N)c3c2OCC3)CC1 [PRUCALOPRIDE]"
result = 416

[[record]]
compound = "CN1CCN2c3ccccc3Cc3ccccc3C2C1.Cl (configuration not stated) [MIANSERIN HYDROCHLORIDE]"
result = 338

[[record]]
compound = "CCc1nn2c(C)cc(C)nc2c1Cc1ccc(-c2nnc(C3CCNCC3)o2)cc1"
result = 401

[[record]]
compound = "Cn1cc(C(=O)OCC2CCN(CCNS(C)(=O)=O)CC2)c2ccccc21"
result = 466

[[record]]
compound = "COc1cc2nc(N3CCN(C(=O)c4ccco4)CC3)nc(N)c2cc1OC.Cl [PRAZOSIN HYDROCHLORIDE]"
result = 448

[[record]]
compound = "CSc1nc(NC2CCCC2)c([N+](=O)[O-])c(NC2CCCC2)n1"
result = 346

[[record]]
compound = "C[C@@H]1CC(=O)Nc2cccc(-c3ccc4c(c3)c(-c3cnn(C)c3)nn4C)c2N1"
result = 305

[[record]]
compound = "CC(C)C[C@@H]1NC(=O)[C@@H](C(C)C)NC(=O)[C@@H]2CCCN2C(=O)[C@@H](CC(=O)O)NC(=O)[C@@H](Cc2c[nH]c3ccccc23)NC1=O [BQ-123] (cyclo(L[dW][dD]P[dV]))"
result = 376

[[record]]
compound = "C[C@H](NC(=O)CNC(=O)c1cccc(Cl)c1)c1ccccc1"
result = 449

